Target: Torsin-1A (Homo sapiens) (UniProt O14656)
Sequence (O14656 whole entry, looked up): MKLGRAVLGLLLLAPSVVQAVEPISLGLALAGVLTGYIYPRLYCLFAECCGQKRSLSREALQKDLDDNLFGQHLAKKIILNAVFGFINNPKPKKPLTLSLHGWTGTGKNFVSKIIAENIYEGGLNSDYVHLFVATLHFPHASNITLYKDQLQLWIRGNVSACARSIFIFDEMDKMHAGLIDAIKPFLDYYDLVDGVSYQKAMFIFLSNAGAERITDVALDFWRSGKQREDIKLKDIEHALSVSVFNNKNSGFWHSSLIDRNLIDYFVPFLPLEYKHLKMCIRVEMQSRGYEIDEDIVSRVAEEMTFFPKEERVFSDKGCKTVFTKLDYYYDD
Assay: torsin A binders from cell lysate, primary screen, small-molecule microarray, wild-type, 635/667 nm (AID 1149)
Conditions: COS7 hTOR1A-WT lysate, 635 nm fluorescence, higher = more signal
recorded.endpoint: composite z-score
Form: value (number only, do not type unit).

Output composite z-score of C=CCOC(=O)[C@H]1[C@@H]2C(=O)O[C@@H](c3ccccc3)[C@@H](c3ccccc3)N2[C@@H](c2ccc(OCCOC(=O)[C@H]3C[C@H]4C(=O)N[C@@H](CCCCNC(C)=O)C(=O)N4[C@H]3c3cccc(OCCO)c3)cc2)[C@]12C(=O)Nc1ccc(I)cc12 0.96

State, in one line, measured composite z-score of CCOC(=O)C1=CCC(c2ccccc2)N(S(=O)(=O)c2ccc([N+](=O)[O-])cc2)C1 (configuration not stated) 0.331

Specify measured composite z-score for O=C1O[C@H](c2ccccc2)[C@H](c2ccccc2)N2[C@H]1[C@@H](C(=O)N1CCCCCCC1)[C@]1(C(=O)Nc3ccc(C#CC4(O)CCCCCC4)cc31)[C@H]2c1ccccc1OCCO . 3.75

---

Recorded composite z-score for the following molecules
Assay: small-molecule binders of probe aNOTCH3, primary screen, biochemical, small-molecule microarray, 635/667 nm fluorescence (AID 1120);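 further: probe is a biotin-tagged antibody raised against NOTCH3 rather than NOTCH3 protein; score merges spot fluorescence near 667 nm with spot signal to noise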
Settings: higher = more signal

Please review the following examples before continuing.
molecule	composite z-score
COCC1=C2[C@@H](CCc3ccccc3)OB(O)C[C@@H]2[C@@H]2C(=O)N(C)C(=O)[C@@H]2C1	-0.0918
CC(C)[C@H]1NC(=O)[C@@]23C(=O)N[C@@H](Cc4ccccc4)C2[C@H](C)[C@@]2(C)O[C@H]2C3/C=C/CCC/C=C/CNC(=O)[C@H](Cc2ccccc2)NC1=O (stereo partly specified)	-0.213
O=C1NC(=O)C2C1C=CC(C(O)c1ccccn1)N2Nc1ccc(Cl)cc1Cl (stereo unspecified)	0.0773
COC(=O)C(CC#Cc1ccc2c(c1)[C@]1(C(=O)N2)[C@H](c2ccc(O)cc2)N2[C@H](c3ccccc3)[C@H](c3ccccc3)OC(=O)[C@H]2[C@@H]1C(=O)N1CCCCCCC1)C(=O)OC	1.29
O=C1C[C@@](C(=O)NCc2ccccc2)(c2ccc([N+](=O)[O-])cc2)[C@@H](c2ccc(CO)cc2I)N1CC12CC3CC(CC(C3)C1)C2	-0.223

Query composite z-score for C=CCC(OC(C)=O)[C@@H]1[C@@H](N(Cc2cccc3ccccc23)C(=O)c2cccc3ccccc23)c2cc(OCCCO)ccc2N1C(=O)c1ccc2ccccc2c1 (stereo partly specified) 0.0676

Given O=C(CS)NCCCCCCNC(=O)[C@@H]1C[C@@H]2C(=O)NCC(=O)N2[C@@H]1c1ccc(O)cc1 , respond with its composite z-score. -0.397

Please supply the value of reported composite z-score for the item COc1cc(C(O)C2C=CC3C(=O)N(Cc4ccccc4)C(=O)C3N2n2cnnc2)cc(OC)c1OC (stereo unspecified) 0.401

Supply recorded composite z-score for CN1C(=O)C2C(C1=O)C1C=C(CCCO)C2C(C2CC2)N1Cc1cc2c(cc1Br)OCO2 (stereo unspecified) here. 0.201

Return reported composite z-score. Input molecule: C=C(C)C1CCC(C(O)C2C=CC3C(=O)N(C)C(=O)C3N2Nc2cc(OC)c(OC)c(OC)c2)CC1 (stereo unspecified) 0.263

Look up and report measured composite z-score for this entry: CCCCC=C[C@@H](NC(=O)c1ccccc1)c1ccccc1 0.354
